# ASSAYED SYSTEM: T1, mouse vascular endothelial growth factor receptor-2 Fc chimera (Flk-1-Fc) (mouse, UniProt P35918 20-762)
# T1 construct: Bought from R&D Systems; also called mouse VEGFR-2; not shown: Fc part of the purchased chimera, not specified
# T1 sequence (P35918 20-762, change not shown): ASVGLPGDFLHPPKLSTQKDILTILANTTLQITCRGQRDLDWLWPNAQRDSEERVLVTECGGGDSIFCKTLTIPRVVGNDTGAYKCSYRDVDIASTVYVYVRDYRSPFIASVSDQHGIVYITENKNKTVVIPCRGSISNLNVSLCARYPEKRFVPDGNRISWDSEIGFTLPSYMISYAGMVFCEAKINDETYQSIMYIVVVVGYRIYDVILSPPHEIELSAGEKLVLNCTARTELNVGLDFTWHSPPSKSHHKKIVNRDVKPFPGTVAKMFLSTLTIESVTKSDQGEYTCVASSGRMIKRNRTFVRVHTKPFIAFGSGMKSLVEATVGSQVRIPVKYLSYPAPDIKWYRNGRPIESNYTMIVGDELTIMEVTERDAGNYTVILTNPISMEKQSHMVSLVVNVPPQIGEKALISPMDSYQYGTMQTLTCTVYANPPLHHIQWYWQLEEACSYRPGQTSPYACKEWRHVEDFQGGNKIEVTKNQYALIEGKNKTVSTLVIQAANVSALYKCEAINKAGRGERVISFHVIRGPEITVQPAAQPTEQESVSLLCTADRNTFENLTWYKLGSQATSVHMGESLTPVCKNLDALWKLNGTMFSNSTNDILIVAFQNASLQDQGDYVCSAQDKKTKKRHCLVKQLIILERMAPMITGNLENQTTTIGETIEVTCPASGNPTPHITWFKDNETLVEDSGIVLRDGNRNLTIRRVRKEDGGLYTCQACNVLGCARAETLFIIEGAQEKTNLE
# TEST: radioactive equilibrium binding assay, 1 nM Flk-1-Fc, % of input bound
EXPERIMENTAL ENDPOINT: Binding to 1 nM Flk-1, % (%)
Field format: number, assumed %, no unit text.

Here's what some known entries look like.
[[record]]
binder = "A4 (designed binder, 10Fn3 clone, Del 1-8) EVVAATPTSLLISWRHPHFPTRYYRITYGETGGNSPVQEFTVPLQPPTATISGLKPGVDYTITGYAVTDGYNDRLLFIPISINYRT"
recorded_measurement = 2

[[record]]
binder = "E18 (designed binder, 10Fn3 clone, Del 1-8) EVVAATPTSLLISWRHPHFPTRYYRITYGETGGNSPVQEFTVPLQPPTATISGLKPGVDYTITGYAVTVERNGRELNTPISINYRT"
recorded_measurement = 29

[[record]]
binder = "F7 (designed binder, 10Fn3 clone, Del 1-8) EVVAATPTSLLISWRHPHFPTRYYRITYGETGGNSPVQEFTVPLQPPTATISGLKPGVDYTITGYAVTVEHNGRVLNIPISINYRT"
recorded_measurement = 7

[[record]]
binder = "E15 (designed binder, 10Fn3 clone, Del 1-8) EVVAATPTSLLISWRHPHFPTRYYRITYGETGGNSPVQEFTVPLQPPTATISGLKPGVDYTITGYAVTLEPNGRYLMVPISINYRT"
recorded_measurement = 2

[[record]]
binder = "E21 (designed binder, 10Fn3 clone, Del 1-8) EVVAATPTSLLISWRHPHFPTRYYRITYGETGGNSPVQEFTVPLQPPTATISGLKPGVDYTITGYAVTWGYKDHELLIPISINYRT"
recorded_measurement = 1

[[record]]
binder = "EGE4 (designed binder, 10Fn3 clone, Del 1-8) EVVAATPTSLLISWRHPHFPTRYYRITYGETGGNSPVQEFTVPLQPPTATISGLKPGVDYTITGYAVTVERNGRVLNTPISINYRT"
recorded_measurement = 41

[[record]]
binder = "EGE11 (SEQ ID NO 72) (designed binder) EVVAATPTSLLISWRHPHFPTRYYRITYGETGGNSPVQEFTVPLQPPTATISGLKPGVDYTITGYAVTFGWNDRELLIPISINYRT"
recorded_measurement = 0

[[record]]
binder = "EGE9 (designed binder, 10Fn3 clone, Del 1-8) EVVAATPTSLLISWRHPHFPTRYYRITYGETGGNSPVQEFTVPLQPPTATISGLKPGVDYTITGYAVTFGPNDRELLTPISINYRT"
recorded_measurement = 1


// next entry
Which Binding to 1 nM Flk-1, % reading was recorded for the binder D3 (designed binder, 10Fn3 clone, Del 1-8) EVVAATPTSLLISWRHPHFPTRYYRITYGETGGNSPVQEFTVPLQPPTATISGLKPGVDYTITGYAVTVERNGRALMTPISINYRT ?
30
